System: P. falciparum stage V gametocytes
Set-up: BacTiter-Glo ATP luminescence viability of purified stage V gametocytes in 384-well plates, per cent inhibition versus DMSO
Settings: 48 h, 5 µM; inhibitor
About 3,200 (25%) of roughly 13,000 compounds showed an effect of 50% or more. The list shows a part of the results.
Overview of recorded % Inhibition for various compounds
Respond numerically; units are % and should not be typed.

| structure_notation | % Inhibition (%) |
| --- | --- |
| COc1ccc(C(=O)Nc2cc(Br)c3c(c2)CNCC3)cc1Br | 19.9 |
| CCOc1ccc(C(=O)Nc2cc(Br)c3c(c2)CNCC3)cc1C#N | 94.42 |
| CC(C)(C)c1ccc(N2C(N)=NC(N)=NC2(C)C)cc1Cl | 44.95 |
| NC(=O)c1cccc(C(=O)Nc2cccc(-c3ccc(-c4nc5ccc(C(F)(F)F)cc5[nH]4)cc3)c2)c1 | -50.53 |

What % Inhibition value was documented for this compound, CCNc1cc(C(=O)N[C@@H](Cc2ccccc2)[C@H](O)CNC(C)(C)c2cccc(OC)c2)cc(N2CCCC2=O)c1 ?
-11.4

Lookup CCOc1ccc(C(=O)Nc2cc(Br)c3c(c2)CNCC3)cc1Cl
27.05

Lookup CCOc1ccc(C(=O)Nc2cc(Br)c3c(c2)CNCC3)cc1C(F)(F)F
37.39

Lookup O=C(/C=C/c1ccc(Cl)c(Cl)c1)NC1CCN(CCNC(=O)c2cccc(Cl)c2)CC1
-32.49
